- Tgt: Transient receptor potential cation channel subfamily A member 1 (Rattus norvegicus, UniProt Q6RI86)
- Sequence (Q6RI86 whole entry): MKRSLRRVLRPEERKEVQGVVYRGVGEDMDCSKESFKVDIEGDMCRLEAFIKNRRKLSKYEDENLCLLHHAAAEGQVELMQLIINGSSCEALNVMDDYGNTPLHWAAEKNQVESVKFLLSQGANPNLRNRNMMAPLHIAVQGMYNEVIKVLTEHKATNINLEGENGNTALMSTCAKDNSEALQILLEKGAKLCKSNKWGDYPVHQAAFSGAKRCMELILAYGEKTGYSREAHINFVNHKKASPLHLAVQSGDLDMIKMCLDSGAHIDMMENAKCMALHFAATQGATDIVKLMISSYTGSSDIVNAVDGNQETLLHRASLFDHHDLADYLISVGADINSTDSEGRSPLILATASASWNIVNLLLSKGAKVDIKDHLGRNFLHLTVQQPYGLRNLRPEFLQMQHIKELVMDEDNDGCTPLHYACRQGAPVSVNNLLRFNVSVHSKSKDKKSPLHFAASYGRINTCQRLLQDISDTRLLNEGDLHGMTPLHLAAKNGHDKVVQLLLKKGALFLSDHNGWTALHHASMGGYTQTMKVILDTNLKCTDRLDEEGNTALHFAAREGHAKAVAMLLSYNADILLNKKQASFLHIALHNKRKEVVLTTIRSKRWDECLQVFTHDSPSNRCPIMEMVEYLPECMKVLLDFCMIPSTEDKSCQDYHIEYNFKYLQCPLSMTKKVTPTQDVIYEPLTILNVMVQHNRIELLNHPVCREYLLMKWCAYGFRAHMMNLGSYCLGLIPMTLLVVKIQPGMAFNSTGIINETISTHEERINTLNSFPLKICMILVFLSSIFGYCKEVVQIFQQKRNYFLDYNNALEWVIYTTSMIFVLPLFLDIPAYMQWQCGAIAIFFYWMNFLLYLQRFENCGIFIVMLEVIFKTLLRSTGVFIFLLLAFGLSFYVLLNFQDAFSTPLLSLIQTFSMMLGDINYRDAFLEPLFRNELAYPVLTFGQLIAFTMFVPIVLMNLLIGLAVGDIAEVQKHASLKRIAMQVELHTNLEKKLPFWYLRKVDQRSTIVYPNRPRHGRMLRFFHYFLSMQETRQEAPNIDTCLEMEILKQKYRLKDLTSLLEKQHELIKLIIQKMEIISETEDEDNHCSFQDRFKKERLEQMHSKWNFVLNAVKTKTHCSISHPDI
- Assay Text: Activation of rat TRPA1 expressed in HEK293 cells assessed as stimulation of intracellular Ca2+ levels
Property: EC50 (µM)

Observe how each entry below is paired with its result.
• Cc1ccc(C(C)C)c(NC(=O)Oc2ccc(C(F)(F)F)cc2)c1 = 41
• Cc1ccc(C(C)C)c(NC(=O)Cc2cccc(I)c2)c1 = 20.5
• Cc1ccc(C(C)C)c(NC(=O)Oc2ccc(C(C)(C)C)cc2)c1 = 1.3

a: Cc1ccc(C(C)C)c(C(=O)NCCc2c[nH]c3ccc(OCc4ccccc4)cc23)c1
b: COc1ccc(C(=O)Oc2cc(C)ccc2C(C)C)cc1
c: Cc1ccc(C(C)C)c(OC(=O)Cc2ccc(-c3ccccc3)cc2)c1
d: Cc1ccc(C(C)C)c(C(=O)Oc2ccc(-c3ccccc3)cc2)c1
e: Cc1ccc(C(C)C)c(C(=O)Nc2ccc(C(F)(F)F)cc2)c1
Query :: Output the entries ranked by EC50 from maximum down to minimum. Provide the labels, sequenced as the question asks.
Result :: a, d, e, c, b
(a: 25.9 µM, d: 7.4 µM, e: 3.9 µM, c: 1.8 µM, b: 1 µM)

====

- Tgt: Transient receptor potential cation channel subfamily M member 8 (Rattus norvegicus)
- Sequence (Q8R455 whole entry): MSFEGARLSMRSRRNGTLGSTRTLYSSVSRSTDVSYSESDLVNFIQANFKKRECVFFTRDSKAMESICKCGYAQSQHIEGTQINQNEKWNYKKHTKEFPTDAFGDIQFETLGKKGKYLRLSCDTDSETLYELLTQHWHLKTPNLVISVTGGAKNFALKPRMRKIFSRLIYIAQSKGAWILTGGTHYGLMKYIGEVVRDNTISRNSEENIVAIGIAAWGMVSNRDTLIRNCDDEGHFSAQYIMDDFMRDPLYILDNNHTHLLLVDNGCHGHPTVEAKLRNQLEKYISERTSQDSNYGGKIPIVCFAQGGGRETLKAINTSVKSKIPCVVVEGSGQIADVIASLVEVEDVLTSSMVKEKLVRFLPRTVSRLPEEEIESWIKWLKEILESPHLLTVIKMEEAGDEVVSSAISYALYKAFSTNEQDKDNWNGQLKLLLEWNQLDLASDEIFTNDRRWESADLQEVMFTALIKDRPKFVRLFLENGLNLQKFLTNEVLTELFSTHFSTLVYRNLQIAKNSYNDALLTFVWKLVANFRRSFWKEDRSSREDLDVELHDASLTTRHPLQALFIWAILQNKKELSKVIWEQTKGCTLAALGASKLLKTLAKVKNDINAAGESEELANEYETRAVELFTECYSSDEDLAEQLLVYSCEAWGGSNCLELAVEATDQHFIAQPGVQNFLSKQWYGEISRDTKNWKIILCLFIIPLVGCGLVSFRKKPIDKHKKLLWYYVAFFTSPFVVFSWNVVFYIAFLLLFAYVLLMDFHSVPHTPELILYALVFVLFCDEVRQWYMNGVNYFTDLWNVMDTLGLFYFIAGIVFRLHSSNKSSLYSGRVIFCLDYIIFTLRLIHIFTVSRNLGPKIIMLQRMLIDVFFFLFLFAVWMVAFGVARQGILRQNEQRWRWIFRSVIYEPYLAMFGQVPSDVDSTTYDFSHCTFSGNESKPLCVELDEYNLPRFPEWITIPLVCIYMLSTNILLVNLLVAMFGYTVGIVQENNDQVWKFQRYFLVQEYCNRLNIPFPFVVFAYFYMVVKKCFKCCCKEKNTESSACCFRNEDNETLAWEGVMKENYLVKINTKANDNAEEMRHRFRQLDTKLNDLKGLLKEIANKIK
- Assay Text: Inhibition of rat TRPM8 expressed in HEK293 cells assessed as reduction in 20 uM menthol-stimulated increase in intracellular Ca2+ levels
- Format: cell-based
Property: IC50 (µM)

- Cc1ccc(C(C)C)c(NC(=O)Oc2ccc(C(F)(F)F)cc2)c1: 73.7
- Cc1ccc(C(C)C)c(OC(=O)c2ccc(-c3ccccc3)cc2)c1: 18.6
- COc1ccc(C(=O)Oc2cc(C)ccc2C(C)C)cc1: 5
- Cc1ccc(C(C)C)c(C(=O)NCCc2c[nH]c3ccc(OCc4ccccc4)cc23)c1: 61.4
- Cc1ccc(C(C)C)c(C(=O)Nc2ccc(Cl)cc2)c1: 5
- Cc1ccc(C(C)C)c(O)c1: 169
- Cc1ccc(C(C)C)c(C(=O)Nc2ccc(C(C)(C)C)cc2)c1: 1.2
- COc1ccc(C(=O)Nc2cc(C)ccc2C(C)C)cc1: 15.2
- Cc1ccc(C(C)C)c(NC(=O)Nc2ccc(C(C)(C)C)cc2)c1: 26.7
- Cc1ccc(C(C)C)c(NC(=O)Cc2cccc(I)c2)c1: 14.1

1: Cc1ccc(C(C)C)c(NC(=O)Oc2ccc(C(C)(C)C)cc2)c1
2: Cc1ccc(C(C)C)c(NC(=O)Cc2ccc(-c3ccccc3)cc2)c1
3: Cc1ccc(C(C)C)c(C(=O)NCCc2ccccc2)c1
4: Cc1ccc(C(C)C)c(C(=O)Nc2ccc(C(F)(F)F)cc2)c1
Query :: Order field: IC50 | Direction: descending (largest first) Returns: the labels arranged in the requested order.
Result :: 2, 4, 1, 3

A: COc1ccc(OC(=O)c2cc(C)ccc2C(C)C)cc1
B: Cc1ccc(C(C)C)c(NC(=O)Nc2ccc(-c3ccccc3)cc2)c1
C: Cc1ccc(C(C)C)c(NC(=O)c2ccc(C(C)(C)C)cc2)c1
Query :: Put the entries in order of IC50, starting with the largest number. A complete answer lists every label in the requested sequence.
Result :: A, B, C
(A: 77.4 µM, B: 25.4 µM, C: 1 µM)

1: COc1ccc(NC(=O)Nc2cc(C)ccc2C(C)C)cc1
2: Cc1ccc(C(C)C)c(N)c1
Query :: Select the item with the higher value of IC50 from the options 1 and 2 listed. // caller expects the label of the chosen entry
Result :: 2
